Values from patent US8067454B2

Listing of recorded Growth Percent, MOLT-4 by entry.
System: MOLT-4
procedure.details: NCI 60-cell drug screen, Leukemia MOLT-4
Assay type: cell-based, human
test.context: 1.00E−5 Molar

{"compound": "CCSc1nc2ccc3c(c2[nH]1)C(=O)c1ccccc1C3=O [f1-1]", "Growth Percent, MOLT-4": "100.70%"}
{"compound": "CCCSc1nc2ccc3c(c2[nH]1)C(=O)c1ccccc1C3=O [f1-2]", "Growth Percent, MOLT-4": "68.13%"}
{"compound": "O=C1c2ccccc2C(=O)c2c1ccc1nc(SCCN3CCCC3)[nH]c21 [f1-11]", "Growth Percent, MOLT-4": "30.94%"}
{"compound": "O=C1c2ccccc2C(=O)c2c1ccc1nc(S)[nH]c21 [f1-0]", "Growth Percent, MOLT-4": "108.60%"}
{"compound": "CN(C)CCCSc1nc2ccc3c(c2[nH]1)C(=O)c1ccccc1C3=O [f1-15]", "Growth Percent, MOLT-4": "−2.90%"}
{"compound": "O=C1c2ccccc2C(=O)c2c1ccc1nc3n(c21)CCS3 [f3-1]", "Growth Percent, MOLT-4": "58.39%"}

----------
Listing of recorded Growth Percent, HCT-116 by entry.
System: HCT-116
procedure.details: NCI 60-cell drug screen, Colon Cancer HCT-116
Type: cell-based, human
test.context: 1.00E−5 Molar

{"molecule": "CCCSc1nc2ccc3c(c2[nH]1)C(=O)c1ccccc1C3=O [f1-2]", "Growth Percent, HCT-116, %": 47.69}
{"molecule": "O=C1c2ccccc2C(=O)c2c1ccc1nc(SCCN3CCCC3)[nH]c21 [f1-11]", "Growth Percent, HCT-116, %": 38.81}
{"molecule": "CN(C)CCCSc1nc2ccc3c(c2[nH]1)C(=O)c1ccccc1C3=O [f1-15]", "Growth Percent, HCT-116, %": 27.58}
{"molecule": "CCSc1nc2ccc3c(c2[nH]1)C(=O)c1ccccc1C3=O [f1-1]", "Growth Percent, HCT-116, %": 68.78}
{"molecule": "O=C1c2ccccc2C(=O)c2c1ccc1nc(S)[nH]c21 [f1-0]", "Growth Percent, HCT-116, %": 96.31}
{"molecule": "O=C1c2ccccc2C(=O)c2c1ccc1nc3n(c21)CCS3 [f3-1]", "Growth Percent, HCT-116, %": 68.43}

----------
System: HOP-92
procedure.details: NCI 60-cell drug screen, Non-Small Cell Lung Cancer HOP-92
Format: cell-based, human
test.context: 1.00E−5 Molar
Listing of recorded Growth Percent, HOP-92 by entry.

{"compound": "O=C1c2ccccc2C(=O)c2c1ccc1nc3n(c21)CCS3 [f3-1]", "Growth Percent, HOP-92 / %": 88.67}
{"compound": "O=C1c2ccccc2C(=O)c2c1ccc1nc(SCCN3CCCC3)[nH]c21 [f1-11]", "Growth Percent, HOP-92 / %": 35.17}
{"compound": "CN(C)CCCSc1nc2ccc3c(c2[nH]1)C(=O)c1ccccc1C3=O [f1-15]", "Growth Percent, HOP-92 / %": 15.99}
{"compound": "CCCSc1nc2ccc3c(c2[nH]1)C(=O)c1ccccc1C3=O [f1-2]", "Growth Percent, HOP-92 / %": 17.25}
{"compound": "O=C1c2ccccc2C(=O)c2c1ccc1nc(S)[nH]c21 [f1-0]", "Growth Percent, HOP-92 / %": 65.48}
{"compound": "CCSc1nc2ccc3c(c2[nH]1)C(=O)c1ccccc1C3=O [f1-1]", "Growth Percent, HOP-92 / %": 75.35}
